Tested on: PXR:RXRa (NR concentration 270 nM, RXRa partner concentration 90 nM)
procedure_details: PBM binding z-score (relative to random genomic background probes); higher = stronger binding; sequences stand for … in GC…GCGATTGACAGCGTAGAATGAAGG
Measured PBM binding z-score by item
assay_endpoint: PBM binding z-score

* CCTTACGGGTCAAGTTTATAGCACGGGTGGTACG | 3.89
* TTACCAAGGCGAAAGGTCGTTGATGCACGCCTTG | 1.96
* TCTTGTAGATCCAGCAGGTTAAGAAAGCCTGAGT | 0.35
* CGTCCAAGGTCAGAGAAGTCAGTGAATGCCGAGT | 2.55
* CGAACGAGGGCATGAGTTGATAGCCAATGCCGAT | 0.342
* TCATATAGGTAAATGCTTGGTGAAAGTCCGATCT | 0.501
* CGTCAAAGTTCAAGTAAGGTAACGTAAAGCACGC | 5.21
* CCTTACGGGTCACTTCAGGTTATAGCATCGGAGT | 5.04
* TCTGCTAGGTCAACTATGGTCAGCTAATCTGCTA | 2.47
* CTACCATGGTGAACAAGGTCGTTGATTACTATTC | 1.56
* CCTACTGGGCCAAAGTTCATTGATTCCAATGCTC | 4.5
* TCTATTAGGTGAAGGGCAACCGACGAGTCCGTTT | 0.47
* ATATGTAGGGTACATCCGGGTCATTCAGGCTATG | 4.11
* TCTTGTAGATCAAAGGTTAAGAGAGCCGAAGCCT | 1.87
* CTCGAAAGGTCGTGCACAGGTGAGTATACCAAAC | 3.56
* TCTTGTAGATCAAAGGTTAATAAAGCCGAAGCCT | 1.62
* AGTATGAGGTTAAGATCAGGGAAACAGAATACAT | 1.15
* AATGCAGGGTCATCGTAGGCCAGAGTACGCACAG | 4.81
* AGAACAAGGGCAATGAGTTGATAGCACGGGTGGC | 0.978
* CCTTACGGGTCACGGACAGGTTATAGCATTTGGA | 4.82
* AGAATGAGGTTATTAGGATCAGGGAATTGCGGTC | 1.38
* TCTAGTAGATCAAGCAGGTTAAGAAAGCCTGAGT | 0.277
* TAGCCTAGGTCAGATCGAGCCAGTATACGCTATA | 0.136
* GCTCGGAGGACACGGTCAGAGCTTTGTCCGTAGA | -0.581
* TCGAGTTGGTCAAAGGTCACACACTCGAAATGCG | 6.29
* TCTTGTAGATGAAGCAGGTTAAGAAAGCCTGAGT | 0.195
* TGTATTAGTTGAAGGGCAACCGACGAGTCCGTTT | 0.63
* CGAACTAGGTCATCGACAGGACAGTGAATAGTAA | 1.76
* TCTAGTTGGTCACGGAGGTCACACAGGACGGGTA | 4.78
* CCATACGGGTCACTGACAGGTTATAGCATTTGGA | 3.55
* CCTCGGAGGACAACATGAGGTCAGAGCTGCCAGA | 2.8
* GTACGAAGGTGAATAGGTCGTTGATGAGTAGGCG | 0.754
* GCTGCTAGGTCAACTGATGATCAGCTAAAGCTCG | 1.34
* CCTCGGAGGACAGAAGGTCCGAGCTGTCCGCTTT | -0.746
* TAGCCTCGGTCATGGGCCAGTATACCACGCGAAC | -0.176
* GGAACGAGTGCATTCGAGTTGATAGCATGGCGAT | 2.91
* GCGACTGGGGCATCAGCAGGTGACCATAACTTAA | -0.51
* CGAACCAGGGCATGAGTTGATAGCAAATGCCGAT | -0.0525
* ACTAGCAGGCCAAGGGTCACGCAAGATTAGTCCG | 4.25
* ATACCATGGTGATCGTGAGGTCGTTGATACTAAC | 1.75
